System: MARIMO
assay-summary: cell viability relative to vehicle control; higher = less cytotoxic;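 also: after 48 h exposure read by CellTiter-Glo luminescence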
experimental-setup: 10 µM; SRSF2 genotype: SRSF2 P95H/wt
Criterion: cell viability strictly under 90%. Met: true (1). Not met: false (0).

- molecule: "Nc1cccc(S(=O)(=O)N2CCCN(S(=O)(=O)c3ccc4c(c3)OCCO4)CC2)c1"
  group-label: "false (0)"

I'd appreciate it if you could check whether CC(=O)O[C@]1(C(C)=O)CC[C@H]2[C@@H]3C[C@H](C)C4=CC(=O)C=C[C@]4(C)[C@@]3(F)[C@@H](O)C[C@@]21C [Fluorometholone Acetate] has cell viability smaller than 90%.
false (0)

// repeat for CCCCc1nc(Cl)c(CO)n1Cc1ccc(-c2ccccc2-c2nnn[nH]2)cc1 [Losartan potassium] and report
false (0)

// repeat for `C=CCn1c(=O)c2cnc(Nc3ccc(N4CCN(C)CC4)cc3)nc2n1-c1cccc(C(C)(C)O)n1` and report
true (1)

// repeat for CC(C)c1cc(C(C)C)c(CC(=O)NS(=O)(=O)Oc2c(C(C)C)cccc2C(C)C)c(C(C)C)c1 [Avasimibe (CI-1011)] and report
true (1)

// repeat for CNC[C@H](O)[C@@H](O)[C@H](O)[C@H](O)CO [Meglumine] and report
false (0)

====

Tested on: MOLM14
assay-summary: cell viability relative to vehicle control; higher = less cytotoxic
experimental-setup: 10 µM; SRSF2 genotype: SRSF2 P95H/wt
Structures can show the parent of a compound that is named as a salt.
Assign cell viability to each entry below.
Please answer in the form of a number followed by its unit of measurement.

- compound: "COc1cc2c(N3CCN(C(=O)Nc4ccc(OC(C)C)cc4)CC3)ncnc2cc1OCCCN1CCCCC1"
  target-or-system: "MOLM14"
  cell viability: "17.1%"
- compound: "CCN(CC)CC#CCOC(=O)C(O)(c1ccccc1)C1CCCCC1 (centres undefined) [Oxybutynin (Ditropan)]"
  target-or-system: "MOLM14"
  cell viability: "83.5%"
- compound: "O=C(O)c1cc(C(=O)O)c2c(n1)C(=O)C(=O)c1cc(C(=O)O)[nH]c1-2 [Pyrroloquinoline Quinone Disodium Salt]"
  target-or-system: "MOLM14"
  cell viability: "88.8%"

Next up:
Look up cell viability for this compound: `CCc1ccc(OCc2ccccc2C(=O)Nc2ccc3nc(C)cc(N)c3c2)cc1`
0.48%

====

System: OCI-AML2
assay-summary: cell viability relative to vehicle control; higher = less cytotoxic
experimental-setup: 10 µM; SRSF2 genotype: P95H/wt
property-name: cell viability (%)
Give bare numbers, in %.

See these solved cases before continuing.
- molecule: "CCCCCCCCCCCCCCCCn1cc[n+](Cc2ccccc2)c1C"
  property-name: "cell viability"
  experimental-result: 0.05
- molecule: "CC1(C)[C@@H](OC(=O)CCC(=O)O)CC[C@]2(C)[C@H]3C(=O)C=C4[C@@H]5C[C@@](C)(C(=O)O)CC[C@]5(C)CC[C@@]4(C)[C@]3(C)CC[C@@H]12 [Carbenoxolone disodiuM]"
  property-name: "cell viability"
  experimental-result: 89.3
- molecule: "O=S(=O)(c1ccccc1)N(CC(F)(F)F)c1ccc(C(O)(C(F)(F)F)C(F)(F)F)cc1"
  property-name: "cell viability"
  experimental-result: 67.5
- molecule: "Fc1ccc(CNc2ncnc3ccc(F)cc23)cc1"
  property-name: "cell viability"
  experimental-result: 35.6
- molecule: "COc1ncc(-c2cc(-c3ncc(CN4C[C@@H](C)O[C@@H](C)C4)o3)c3cn[nH]c3c2)cc1NS(C)(=O)=O"
  property-name: "cell viability"
  experimental-result: 13.1

For every item in the list below, what is its measured cell viability?
1. CCN1CCN(Cc2ccc(-c3cc4c(N[C@H](C)c5ccccc5)ncnc4[nH]3)cc2)CC1
2. O=C(O)c1cc(=O)cc(C(=O)O)o1
3. CC(C)=CCC[C@](C)(O[C@@H]1O[C@H](CO[C@@H]2O[C@H](CO)[C@@H](O)[C@H](O)[C@H]2O)[C@@H](O)[C@H](O)[C@H]1O)[C@H]1CC[C@]2(C)[C@@H]1[C@H](O)C[C@@H]1[C@@]3(C)CC[C@H](O[C@@H]4O[C@H](CO)[C@@H](O)[C@H](O)[C@H]4O[C@@H]4O[C@H](CO)[C@@H](O)[C@H](O)[C@H]4O)C(C)(C)[C@@H]3CC[C@]12C [Ginsenoside Rb1]

13.8
110
101
